Giardia (16 uM) Mean % inhibition overview
Tested on: G. lamblia trophozoites (luciferase expressing, WBC6)
Measurement Protocol: microbe, parasite or virus in culture
Assay type: cell-based, Giardia lamblia
Experimental Setup: initial Pathogen Box screen, single concentration 16 µM, inhibition compared to DMSO wells

// query Observed Giardia (16 uM) Mean % inhibition on G. lamblia trophozoites (luciferase expressing, WBC6) for `O=C(NCc1nnc2n1CCCCC2)c1ccc(-c2ccc(F)cc2)o1` , please.
// result 52%

Next, consider the following compound.
// query Observed Giardia (16 uM) Mean % inhibition on G. lamblia trophozoites (luciferase expressing, WBC6) for `Cc1ccc(-c2nc(CN(Cc3ccccn3)C(C)C)cs2)o1` , please.
// result 52%
